Item-by-item account of LED
- TEST TARGET: Geranylgeranyl pyrophosphate synthase (Homo sapiens) (UniProt O95749)
- Sequence (whole entry): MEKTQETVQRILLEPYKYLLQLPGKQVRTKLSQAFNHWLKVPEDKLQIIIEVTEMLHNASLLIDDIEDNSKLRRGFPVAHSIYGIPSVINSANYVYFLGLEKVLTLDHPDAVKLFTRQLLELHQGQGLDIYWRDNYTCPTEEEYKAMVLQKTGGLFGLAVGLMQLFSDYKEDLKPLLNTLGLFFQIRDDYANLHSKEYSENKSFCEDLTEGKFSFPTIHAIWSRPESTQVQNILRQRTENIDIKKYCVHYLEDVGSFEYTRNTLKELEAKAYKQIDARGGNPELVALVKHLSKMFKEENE
- EXPERIMENT SUMMARY: Inhibition of GGDPS in human SAOS-2 cells assessed as lowest effective concentration required to show unmodified Rap1a band measured after 48 hrs by immunoblot analysis
- Assay type: cell-based
Your answer is read as µM, so omit the unit and give the number.

[
  {
    "MOLECULE": "CC(C)=CCCC(C)=CCn1cc(C2OC2(P(=O)(O)O)P(=O)(O)O)nn1 (stereo unspecified)",
    "TEST TARGET": "Geranylgeranyl pyrophosphate synthase (Homo sapiens) (UniProt O95749)",
    "METRIC": "LED",
    "TEST RESULT": 0.5
  },
  {
    "MOLECULE": "CC(C)=CCC/C(C)=C\\CCn1cc(C=C(P(=O)(O)O)P(=O)(O)O)nn1",
    "TEST TARGET": "Geranylgeranyl pyrophosphate synthase (Homo sapiens) (UniProt O95749)",
    "METRIC": "LED",
    "TEST RESULT": 0.01
  },
  {
    "MOLECULE": "CC(C)=CCC/C(C)=C/CCn1cc(C2CC2(P(=O)([O-])[O-])P(=O)([O-])[O-])nn1.[Na+].[Na+].[Na+].[Na+] (stereo unspecified)",
    "TEST TARGET": "Geranylgeranyl pyrophosphate synthase (Homo sapiens) (UniProt O95749)",
    "METRIC": "LED",
    "TEST RESULT": 5
  }
]

QUERY: Requested field: LED. Item: CC(C)=CCC/C(C)=C\CCn1cc(C2CC2(P(=O)([O-])[O-])P(=O)([O-])[O-])nn1.[Na+].[Na+].[Na+].[Na+] (stereo unspecified)
RESULT: 50

QUERY: Would you kindly share the measured LED for CC(C)=CCC/C(C)=C/CCn1cc(C=C(P(=O)(O)O)P(=O)(O)O)nn1 ?
RESULT: 0.01

QUERY: Entry under review: CC(C)=CCC/C(C)=C/CCn1cc(C2CC2(P(=O)(OCOC(=O)C(C)(C)C)OCOC(=O)C(C)(C)C)P(=O)(OCOC(=O)C(C)(C)C)OCOC(=O)C(C)(C)C)nn1 (stereo unspecified) . Reported LED?
RESULT: 5

----------
- TEST TARGET: Geranylgeranyl pyrophosphate synthase (Homo sapiens) (UniProt O95749)
- EXPERIMENT SUMMARY: Inhibition of GGDPS in human 143B cells assessed as lowest effective concentration required to show unmodified Rap1a band measured after 48 hrs by immunoblot analysis
- Format: cell-based
METRIC: LED
The reply should read as a number followed by its unit.

Here's what some known entries look like.
[
  {
    "COMPOUND": "CC(C)=CCCC(C)=CCn1cc(C2OC2(P(=O)(O)O)P(=O)(O)O)nn1 (stereo unspecified)",
    "LED": "5 µM"
  },
  {
    "COMPOUND": "CC(C)=CCC/C(C)=C\\CCn1cc(C=C(P(=O)(O)O)P(=O)(O)O)nn1",
    "LED": "0.25 µM"
  },
  {
    "COMPOUND": "CC(C)=CCC/C(C)=C/CCn1cc(C2CC2(P(=O)(OCOC(=O)C(C)(C)C)OCOC(=O)C(C)(C)C)P(=O)(OCOC(=O)C(C)(C)C)OCOC(=O)C(C)(C)C)nn1 (stereo unspecified)",
    "LED": "5 µM"
  },
  {
    "COMPOUND": "CC(C)=CCC/C(C)=C/CCn1cc(C2CC2(P(=O)([O-])[O-])P(=O)([O-])[O-])nn1.[Na+].[Na+].[Na+].[Na+] (stereo unspecified)",
    "LED": "5 µM"
  },
  {
    "COMPOUND": "CC(C)=CCC/C(C)=C/CCn1cc(C=C(P(=O)(O)O)P(=O)(O)O)nn1",
    "LED": "0.25 µM"
  }
]

QUERY: Fill in: LED of CC(C)=CCC/C(C)=C\CCn1cc(C2CC2(P(=O)([O-])[O-])P(=O)([O-])[O-])nn1.[Na+].[Na+].[Na+].[Na+] (stereo unspecified) is ___
RESULT: 50 µM
